# Tested on: biotinyl-Leu-oxazolone
# TEST_DETAILS: self-aminoacylation, catalytic enhancement (BLO) (fold over background); higher = more active; k-Seq, kA / k0A0; sequences stand for … in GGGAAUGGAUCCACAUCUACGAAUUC…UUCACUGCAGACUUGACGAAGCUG
Variants at the floor of the assay were thinned out.
In this scheme, each record receives a class according to its self-aminoacylation; the ranges are low group: < 1; middle group: ≥ 1 and < 6; high group: ≥ 6

Q: State the class of the sequence shown: CCGCACUUCAAGCAUUCGGUC [Fam1B.1 aminoacylation ribozyme variant]
Ans: middle group

Q: State the class of the sequence shown: CCACACUUUAAGCGAUCGGUC [Fam1B.1 aminoacylation ribozyme variant]
Ans: middle group

Q: State the class of the sequence shown: AUUACCCUGGUCAUCGAGUAU [Fam2.1 aminoacylation ribozyme variant]
Ans: high group

Q: State the class of the sequence shown: AGUACCCUGGUCAUCGAGGGA [Fam2.1 aminoacylation ribozyme variant]
Ans: middle group

Q: State the class of the sequence shown: GUUACACUGGUCAUCGAGUGA [Fam2.1 aminoacylation ribozyme variant]
Ans: high group

Q: State the class of the sequence shown: AAGUUUGCUAUUAGUCGCUAG [Fam3.1 aminoacylation ribozyme variant]
Ans: low group

---
Q: State the class of the sequence shown: CCACACUUCAAGCAUUCGUUC [Fam1B.1 aminoacylation ribozyme variant]
Ans: low group

Q: State the class of the sequence shown: AUUCACCUACGCCAUCGGGUG [Fam2.2 aminoacylation ribozyme variant]
Ans: middle group

====

# Tested on: biotinyl-Phe-oxazolone
# TEST_DETAILS: self-aminoacylation, catalytic enhancement (BFO) (fold over background); higher = more active; k-Seq, kA / k0A0; sequences stand for … in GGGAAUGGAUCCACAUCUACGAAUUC…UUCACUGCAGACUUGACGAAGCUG
Variants at the floor of the assay were thinned out.
MEASUREMENT_KIND: self-aminoacylation
Respond numerically, and do not add a unit to the figure.

The examples below pair each entry with its known result.
Q: Find self-aminoacylation (biotinyl-Phe-oxazolone) for the entry ACUGCCCUGGUCAUCGAGUGA [Fam2.1 aminoacylation ribozyme variant]
Ans: 269

Q: Find self-aminoacylation (biotinyl-Phe-oxazolone) for the entry AGGUUUGCUAAUAGUCGCAAA [Fam3.1 aminoacylation ribozyme variant]
Ans: 3.21

Q: Find self-aminoacylation (biotinyl-Phe-oxazolone) for the entry AAUCACCUAGGUCAUCGGUUG [Fam2.2 aminoacylation ribozyme variant]
Ans: 5.05

Q: Find self-aminoacylation (biotinyl-Phe-oxazolone) for the entry CCACACUUUAAACAAUCGGUC [Fam1B.1 aminoacylation ribozyme variant]
Ans: 2.02

From here, focus on the item given below.
Q: Find self-aminoacylation (biotinyl-Phe-oxazolone) for the entry AUCACCCUGGUCGUCGAGUGA [Fam2.1 aminoacylation ribozyme variant]
Ans: 5.78

====

The sequences listed here are annotated with their self-aminoacylation.
# Tested on: biotinyl-Ile-oxazolone
# TEST_DETAILS: self-aminoacylation, catalytic enhancement (BIO) (fold over background); higher = more active; k-Seq, kA / k0A0; sequences stand for … in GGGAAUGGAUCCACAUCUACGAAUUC…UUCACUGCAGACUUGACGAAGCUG
This sample holds only a part of the variants without activity.
Respond numerically, and do not add a unit to the figure.

The examples below pair each entry with its known result.
Q: State the recorded self-aminoacylation for this entry: CAACACUUCAAGCAACCGGUC [Fam1B.1 aminoacylation ribozyme variant]
Ans: 1

Q: State the recorded self-aminoacylation for this entry: AUUCACCUAGAUCAUUGGGUG [Fam2.2 aminoacylation ribozyme variant]
Ans: 2.15

Q: State the recorded self-aminoacylation for this entry: AUUCACUUUGGUCAUCGGGUG [Fam2.2 aminoacylation ribozyme variant]
Ans: 4.75

---
Q: State the recorded self-aminoacylation for this entry: CUUCACCUAGGUCAUCGUGUG [Fam2.2 aminoacylation ribozyme variant]
Ans: 1.21

Q: State the recorded self-aminoacylation for this entry: AUUCAUCUAGGUCAUCUGGUG [Fam2.2 aminoacylation ribozyme variant]
Ans: 2.1
